Molecular target: T1, regulator of proteinase B (RopB), full-length, wild type (Streptococcus pyogenes (strain …))
T1 chain: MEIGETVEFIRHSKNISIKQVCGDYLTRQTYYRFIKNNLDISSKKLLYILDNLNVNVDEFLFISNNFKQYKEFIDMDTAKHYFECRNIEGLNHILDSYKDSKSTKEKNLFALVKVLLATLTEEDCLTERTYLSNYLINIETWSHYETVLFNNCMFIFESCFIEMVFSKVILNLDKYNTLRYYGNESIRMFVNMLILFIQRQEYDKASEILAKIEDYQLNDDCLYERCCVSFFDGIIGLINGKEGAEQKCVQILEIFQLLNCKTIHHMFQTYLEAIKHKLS
Test: FP; pH 7.0
pKd: −log10 of the molar value. Where no end group is shown, it is not given here. The star is where a group is joined. FITC = O=C1OC2(c3ccc(O)cc3Oc3cc(O)ccc32)c2ccc(NC(=S)*)cc21

{"columns": ["BINDER", "pKd"],
 "data": [
  ["{FITC}-MWLLLLFL [synthetic SIP peptide containing fluorescein modification at its amino-terminus (FITC-SIP)]", 7.93]
]}
